System: MOLT-4
Assay: NCI tumour cell line growth inhibition, 48 h
The source made the active and inactive calls. Cut-off read from the data, not from the text of the source: active = GI50 up to about 1.1 µM and inactive = higher.
endpoint-label: GI50

Entry under review: O=C1C(c2ccccc2)=C(O)c2cccc3cccc1c23 . Reported GI50?
> 100 µM (inactive)

Entry under review: CC(=O)OC1=CC2=CC[C@H]3[C@@H]4CCC(=O)[C@@]4(C)CC(=O)[C@]3(S)[C@@]2(C)CC1 . Reported GI50?
17.4 µM (inactive)

Further cases:
Entry under review: COc1cc(C2c3cc4c(cc3OC3(OC)COC(=O)C23)OCO4)cc(OC)c1OC (stereo not drawn) . Reported GI50?
0.456 µM (active)

Entry under review: O=C(Nc1ccc([N+](=O)[O-])cc1C(=O)O)c1ccc([N+](=O)[O-])cc1 . Reported GI50?
14.8 µM (inactive)

Entry under review: CCc1ccccc1NC(=O)/C(=N/O)C(C)=O . Reported GI50?
> 100 µM (inactive)

Entry under review: CC1(C)CC2C(C1=O)C1(C)CCCC2(C)C1=O (stereo not drawn) . Reported GI50?
> 100 µM (inactive)

Entry under review: O=c1[nH]cnc2c(COCCO)c[nH]c12 . Reported GI50?
> 100 µM (inactive)

Entry under review: CN(C)c1cc2ccccc2oc1=O . Reported GI50?
> 100 µM (inactive)

* * *

System: SW-620
Experiment: NCI tumour cell line growth inhibition, 48 h
The source made the active and inactive calls. Rule as the data show it: active = GI50 up to about 1.1 µM and inactive = higher.
Measured GI50 of individual entries

Example molecules with recorded GI50:
Reported GI50 for SW-620, given CCOC(=N)CC(=O)NC(C)c1ccccc1 (stereo unspecified) ?
> 100 µM (inactive)

Reported GI50 for SW-620, given O=Nc1c(-c2cccc([N+](=O)[O-])c2)nc2cnccn12 ?
10.1 µM (inactive)

Reported GI50 for SW-620, given N#CCCN(CCC#N)c1ccc(/C=C2\N=C(c3cc([N+](=O)[O-])ccc3Cl)N(NC(=O)CC(=O)Nc3ccccc3Cl)C2=O)cc1 ?
> 100 µM (inactive)

Reported GI50 for SW-620, given Nc1c(Br)cc(-c2cc(Br)c(N)c(Br)c2)cc1Br ?
> 100 µM (inactive)

Reported GI50 for SW-620, given COc1ccc2c(c1)c[n+](C)c1c3cc(OC)c(OC)cc3ccc21 ?
1.37 µM (inactive)

Could you now look at the following molecule, please?
Reported GI50 for SW-620, given COc1ccc(NC(=O)/C(=C/c2ccc(N(CCC#N)CCC#N)cc2)NC(=O)c2cc([N+](=O)[O-])ccc2Cl)cc1 ?
98.6 µM (inactive)

* * *

System: NCI-H23
Assay: NCI tumour cell line growth inhibition, 48 h
Calls of active or inactive are those of the source. Rule as the data show it: active = GI50 up to about 1.1 µM and inactive = higher.
Write down the outcome that applies. Available outcomes: YES for active, NO for inactive

Reference set, count: 10
Called result for C(#C[C@@]12CCC[C@@H]1N(Cc1ccccc1)CO2)c1ccc2c(c1)OCO2
NO

Called result for COCN(CCC1=CCCCC1)C(=O)OC
NO

Called result for Cc1nc2nn[nH]n2c(=O)c1CCO
NO

Called result for Cc1cc(S(=O)(=O)Nc2nc(N)n[nH]2)c(SCC(=O)O)cc1Cl
NO

Called result for CCOC(=O)C(SCCO)C(C(=O)OCC)n1cnc2c(N)ncnc21 (stereo not drawn)
NO

Called result for Cc1ccc(C2=NN=C3C(c4ccccc4)=Nc4ccccc4N3C2)cc1
NO

Called result for COc1cccc(NC(=O)CC(=O)N2NC(C)C(/N=N/c3cccc(C(=O)O)c3)C2=O)c1 (stereo not drawn)
NO

Called result for O=C1NC(=O)C2C1c1[nH]c3ccccc3c1C1CCCC12 (stereo not drawn)
NO

Called result for CC(C)C(/C=C/c1ccc(Cl)c(Cl)c1)=N\NC(=O)N/N=C(/C=C/c1ccc(Cl)c(Cl)c1)C(C)C
NO

Called result for Cc1ncc(CSC(=N)N)n1Cc1ccccc1
NO

Further cases:
Called result for CCCC/C=C1/CCC(CN(C)C)C1=O (stereo not drawn)
NO

Called result for O=C1C(c2ccccc2)=C(O)c2cccc3cccc1c23
NO

Called result for Nc1cc(S(N)(=O)=O)ccc1SSc1ccc(S(N)(=O)=O)cc1N
NO

Called result for COc1ccc(C(=O)NCCN(C)C)c2nc3ccccc3cc12
YES

Called result for COc1cc2c(cc1OCCCCN1CCN(CCCCOc3cc4c(cc3OC)C(=O)N3CCC[C@H]3C=N4)CC1)N=C[C@@H]1CCCN1C2=O
YES
